TEST TARGET: HDAC6 enzyme (Homo sapiens)
Construct: transducing full length HDAC6 gene into Sf-9 insect cells; GST; purchased SignalChem; host or cells: Sf-9 insect cells
Sequence (Q9UBN7 1-1215): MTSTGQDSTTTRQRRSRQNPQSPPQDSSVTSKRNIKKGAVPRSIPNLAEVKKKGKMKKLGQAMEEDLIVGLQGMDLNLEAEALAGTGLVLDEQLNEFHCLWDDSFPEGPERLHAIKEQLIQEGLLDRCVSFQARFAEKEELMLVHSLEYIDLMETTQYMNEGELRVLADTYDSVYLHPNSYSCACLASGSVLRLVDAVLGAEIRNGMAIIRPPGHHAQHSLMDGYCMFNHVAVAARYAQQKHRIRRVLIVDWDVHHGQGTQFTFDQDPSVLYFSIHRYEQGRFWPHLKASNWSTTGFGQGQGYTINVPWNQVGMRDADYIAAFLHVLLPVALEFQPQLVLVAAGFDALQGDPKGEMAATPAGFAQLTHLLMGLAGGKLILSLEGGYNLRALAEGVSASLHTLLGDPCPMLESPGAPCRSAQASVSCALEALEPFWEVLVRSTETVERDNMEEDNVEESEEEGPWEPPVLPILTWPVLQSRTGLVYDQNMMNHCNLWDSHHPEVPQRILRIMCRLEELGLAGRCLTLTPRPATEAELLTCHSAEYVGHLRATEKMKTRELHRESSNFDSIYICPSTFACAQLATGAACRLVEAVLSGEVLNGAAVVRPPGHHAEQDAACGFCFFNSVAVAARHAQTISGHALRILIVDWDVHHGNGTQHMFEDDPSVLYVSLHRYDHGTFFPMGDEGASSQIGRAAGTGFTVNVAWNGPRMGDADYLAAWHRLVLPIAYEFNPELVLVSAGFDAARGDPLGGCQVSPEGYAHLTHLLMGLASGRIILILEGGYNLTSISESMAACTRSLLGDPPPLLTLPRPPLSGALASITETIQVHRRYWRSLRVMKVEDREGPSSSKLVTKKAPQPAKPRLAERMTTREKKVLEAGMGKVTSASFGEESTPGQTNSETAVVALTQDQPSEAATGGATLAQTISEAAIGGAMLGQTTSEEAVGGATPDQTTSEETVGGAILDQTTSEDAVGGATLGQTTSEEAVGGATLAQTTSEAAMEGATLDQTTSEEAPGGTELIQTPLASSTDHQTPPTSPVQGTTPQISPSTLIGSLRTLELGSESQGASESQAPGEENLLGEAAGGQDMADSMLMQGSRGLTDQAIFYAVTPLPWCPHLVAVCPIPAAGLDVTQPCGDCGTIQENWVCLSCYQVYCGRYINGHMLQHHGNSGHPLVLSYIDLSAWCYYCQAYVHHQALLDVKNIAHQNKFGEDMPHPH
ASSAY SUMMARY: HDAC6 enzyme inhibitory activity (HDAC-Glo I/II Assay kit)
Type: biochemical
PARTICULARS: 10 μM; wells without enzyme = 100% inhibition; read-out: HDAC6 inhibitory rate (%) (10 μM)
EXPERIMENTAL ENDPOINT: inhibition at 10 µM (%)

# COMPOUND, EXPERIMENTAL ENDPOINT, OBSERVED
rows = [
    ("O=C1c2cc(-c3nnc(C(F)F)o3)ccc2CN1[C@@H]1CCCN[C@@H]1c1ccc(F)cc1 (racemic) [Example 620]", "inhibition at 10 µM", 101),
    ("C[C@H](C1CC1)N1Cc2ccc(-c3nnc(C(F)F)o3)cc2C1=O [Example 115]", "inhibition at 10 µM", 96),
    ("CC(=O)N(c1ccccn1)[C@@H]1CCCC[C@H]1N1Cc2ccc(-c3nnc(C(F)F)o3)cc2C1=O [Example 264]", "inhibition at 10 µM", 101),
    ("CC1(C)OB(c2ccccc2N2Cc3ccc(-c4nnc(C(F)F)o4)cc3C2=O)OC1(C)C [Example 178]", "inhibition at 10 µM", 41),
    ("O=C1c2cc(-c3nnc(C(F)F)o3)cnc2CN1C1CCCC(F)(F)[C@H]1NC(=O)C1(C(F)(F)F)CC1 (some centres unmarked) [Example 606]", "inhibition at 10 µM", 99),
    ("O=C(N[C@@H]1CCCC[C@H]1N1Cc2ccc(-c3nnc(C(F)F)o3)cc2C1=O)[C@H]1C[C@H]1F (mixture of isomers) [Example 111]", "inhibition at 10 µM", 101),
    ("O=C1c2cc(-c3nnc(C(F)F)o3)ccc2CN1c1ccccc1-c1ccc(F)c(F)c1 [Example 307]", "inhibition at 10 µM", 98),
    ("CC(C)(OC(=O)N[C@H]1[C@H](N2Cc3ccc(-c4nnc(C(F)F)o4)cc3C2=O)CCCC1(F)F)C(F)F [Example 583]", "inhibition at 10 µM", 99),
    ("O=C1c2cc(-c3nnc(C(F)F)o3)cc(F)c2CN1[C@@H]1CCOC[C@@H]1NC(=O)C(F)(F)C(F)(F)F [Example 365]", "inhibition at 10 µM", 101),
    ("Cn1cc(C2CCCCN2N2Cc3ccc(-c4nnc(C(F)F)o4)cc3C2=O)cn1 (centres unmarked) [Example 609]", "inhibition at 10 µM", 99),
    ("O=C1c2cc(-c3nnc(C(F)F)o3)ccc2CN1[C@H]1CCCN(C(=O)C(F)(F)C(F)(F)F)[C@@H]1c1ccc(F)cc1 (racemic) [Example 577]", "inhibition at 10 µM", 97),
    ("Cn1cc(C2CCC(NC(=O)OC(C)(C)C)CC2)c(N2Cc3ccc(-c4nnc(C(F)F)o4)cc3C2=O)n1 (centres unmarked) [Example 523]", "inhibition at 10 µM", 99),
    ("CC(C)(C)OC(=O)N1CC[C@@H](N2Cc3ccc(-c4nnc(C(F)F)o4)cc3C2=O)[C@@H](c2ccccc2)C1 [Example 125]", "inhibition at 10 µM", 98),
    ("O=C(N[C@@H]1CCCC[C@H]1N1Cc2ccc(-c3nnc(C(F)F)o3)cc2C1=O)C1CC(F)(F)C1 [Example 33]", "inhibition at 10 µM", 97),
]
